All values here come from patent US5567693A.

System: HTB 161
ASSAY_INFO: Antiproliferative activity in human tumor cell lines: HTB 161 (ovarian)
Type: cell-based
STATED_CONDITIONS: HTB 161 ovarian tumor, PROTOCOL 1 and PROTOCOL 2, 48 hours
Structures can show the parent of a compound that is named as a salt.
Threshold-based label: IC50 under 2 µg/mL gives True, IC50 not under 2 µg/mL gives False.

Criterion: IC50 strictly below 2 µg/mL. Is it met by CN(C)[C@@H]1C(O)=C(C(N)=O)C(=O)[C@@]2(O)C(O)=C3C(=O)c4c(cc(Cl)c(NC(=O)CNCC5CC5)c4O)CC3CC12 (some centres unmarked) [Example 8, dihydrochloride] ?
True

Criterion: IC50 strictly below 2 µg/mL. Is it met by CN(C)CC(=O)Nc1c(Cl)cc2c(c1O)C(=O)C1=C(O)[C@]3(O)C(=O)C(C(N)=O)=C(O)[C@@H](N(C)C)C3CC1C2 (some centres unmarked) ?
True

Criterion: IC50 strictly below 2 µg/mL. Is it met by CC(C(=O)Nc1c(Cl)cc2c(c1O)C(=O)C1=C(O)[C@]3(O)C(=O)C(C(N)=O)=C(O)[C@@H](N(C)C)C3CC1C2)N1CCCC1 (some centres unmarked) [Example 13, dihydrochloride] ?
True

Criterion: IC50 strictly below 2 µg/mL. Is it met by CC(C(=O)Nc1c(Cl)cc2c(c1O)C(=O)C1=C(O)[C@]3(O)C(=O)C(C(N)=O)=C(O)[C@@H](N(C)C)C3CC1C2)N1CCCCC1 (some centres unmarked) [Example 14, dihydrochloride] ?
True

Criterion: IC50 strictly below 2 µg/mL. Is it met by CCCNCC(=O)Nc1c(Cl)cc2c(c1O)C(=O)C1=C(O)[C@]3(O)C(=O)C(C(N)=O)=C(O)[C@@H](N(C)C)C3CC1C2 (some centres unmarked) [Example 5, dihydrochloride] ?
False

Criterion: IC50 strictly below 2 µg/mL. Is it met by CCCCCNCC(=O)Nc1c(Cl)cc2c(c1O)C(=O)C1=C(O)[C@]3(O)C(=O)C(C(N)=O)=C(O)[C@@H](N(C)C)C3CC1C2 (some centres unmarked) [Example 6, dihydrochloride] ?
True

Criterion: IC50 strictly below 2 µg/mL. Is it met by CCC(C(=O)Nc1c(Cl)cc2c(c1O)C(=O)C1=C(O)[C@]3(O)C(=O)C(C(N)=O)=C(O)[C@@H](N(C)C)C3CC1C2)N(C)C (some centres unmarked) [Example 18, dihydrochloride] ?
False

----------
Provide the reported IC50 of each item.
System: Human Tumor cell lines
ASSAY_INFO: Antiproliferative activity in the panel of human tumor cell lines
Format: cell-based
STATED_CONDITIONS: Homo sapiens; average over the 6 tumor cell lines
Method: The antiproliferative activity of the compounds of Formula I in an Adult Bovine Aortic Endothelial (ABAE) cell line and in Human Tumor cell lines is evaluated in three similar assays that measure growth inhibition. The assays are identified as follows: […] The antiproliferative activity of the compounds of Formula I of the present invention is evaluated in a panel comprised of human tumor cell lines and an adult bovine aortic endothelial cell line (ABAE). […]
Structures can show the parent of a compound that is named as a salt.
Write it as a number; the unit µg/mL goes unstated.

Value of IC50 reported for the molecule CN(C)c1c(Cl)cc(O)c2c1CC1CC3[C@H](N(C)C)C(O)=C(C(N)=O)C(=O)[C@@]3(O)C(O)=C1C2=O (stereo partly drawn) [Example 11] is 2.8

Value of IC50 reported for the molecule CCCCCNCC(=O)Nc1c(Cl)cc2c(c1O)C(=O)C1=C(O)[C@]3(O)C(=O)C(C(N)=O)=C(O)[C@@H](N(C)C)C3CC1C2 (stereo partly drawn) [Example 6, dihydrochloride] is 0.8

Value of IC50 reported for the molecule CN(C)[C@@H]1C(O)=C(C(N)=O)C(=O)[C@@]2(O)C(O)=C3C(=O)c4c(cc(Cl)c(NC(=O)CN5CCCC5)c4O)CC3CC12 (stereo partly drawn) [Example 9, dihydrochloride] is 1.45

Value of IC50 reported for the molecule CCC(C(=O)Nc1c(Cl)cc2c(c1O)C(=O)C1=C(O)[C@]3(O)C(=O)C(C(N)=O)=C(O)[C@@H](N(C)C)C3CC1C2)N1CCCC1 (stereo partly drawn) [Example 19, dihydrochloride] is 2.3

Value of IC50 reported for the molecule CCCNCC(=O)Nc1c(Cl)cc2c(c1O)C(=O)C1=C(O)[C@]3(O)C(=O)C(C(N)=O)=C(O)[C@@H](N(C)C)C3CC1C2 (stereo partly drawn) [Example 5, dihydrochloride] is 4.6

Value of IC50 reported for the molecule CCCCNCC(=O)Nc1c(Cl)cc2c(c1O)C(=O)C1=C(O)[C@]3(O)C(=O)C(C(N)=O)=C(O)[C@@H](N(C)C)C3CC1C2 (stereo partly drawn) [Example 4, dihydrochloride] is 2.5
